# test-name: plasma protein binding by equilibrium dialysis, mouse
# Assay type: in vitro ADME
# run-conditions: equilibrium dialysis 5 h, mean ± SD, n = 6, read-out: Plasma protein binding (converted)
metric: fraction unbound at 5 h, 1 μg/mL

# input Using the record for `Cc1cc(F)c2[nH]c(=O)n(C3CCN(C4CCOCC4)CC3)c2c1` , report its fraction unbound at 5 h, 1 μg/mL.
# output 0.518
